experiment: Solubility of Compound 1, Form 3 in MTBE/n-heptane mixtures; format: physicochemical; conditions: MTBE/n-heptane 1/1, 45 °C, organic solvent or mixture, thermodynamic from solid
METRIC_NAME: solubility (mg/mL)
Write down the numeric answer in mg/mL and omit the unit.

// solubility lookup, key: CCOC(=O)[C@@H]1CC2(CCN(c3cc(O[C@H](c4ccc(Cl)cc4-c4ccccc4)C(F)(F)F)nc(N)n3)CC2)CN1 [Form 3]
89.4

###

assay: Solubility of Compound 1 in organic solvents other than MTBE/n-heptane; type: physicochemical; conditions: n-heptane, 50 °C, organic solvent or mixture, thermodynamic from solid
METRIC_NAME: solubility (µg/mL)
# output: bare number, implied unit µg/mL

Would you kindly share the measured solubility for CCOC(=O)[C@@H]1CC2(CCN(c3cc(O[C@H](c4ccc(Cl)cc4-c4ccccc4)C(F)(F)F)nc(N)n3)CC2)CN1 ?
9500
